So I've got a bunch of molecules here, and I need their Emax values.
# assayed.system: CYP3A4 (Homo sapiens, UniProt P08684)
# Sequence (P08684 whole entry): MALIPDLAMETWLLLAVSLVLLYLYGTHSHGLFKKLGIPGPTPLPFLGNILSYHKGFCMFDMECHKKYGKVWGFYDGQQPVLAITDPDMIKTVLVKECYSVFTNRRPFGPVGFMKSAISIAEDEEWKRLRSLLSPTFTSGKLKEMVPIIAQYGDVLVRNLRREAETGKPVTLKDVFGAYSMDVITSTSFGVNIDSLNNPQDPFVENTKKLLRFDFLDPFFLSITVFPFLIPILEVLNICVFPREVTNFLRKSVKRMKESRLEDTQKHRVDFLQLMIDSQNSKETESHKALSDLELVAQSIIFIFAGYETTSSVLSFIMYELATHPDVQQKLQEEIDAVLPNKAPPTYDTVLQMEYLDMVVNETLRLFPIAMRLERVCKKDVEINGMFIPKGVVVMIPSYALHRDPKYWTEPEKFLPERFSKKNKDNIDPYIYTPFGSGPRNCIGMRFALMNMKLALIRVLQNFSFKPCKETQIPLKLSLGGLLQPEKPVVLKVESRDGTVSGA
# experimental.protocol: Inhibition of CYP3A4 in human liver microsomes by measuring maximum efficacy
# Assay type: ADME
Reply numerically in %, unit not repeated.

Cc1n[nH]c2nc(-c3ccc(NS(=O)(=O)c4cc(Cl)ccc4F)cc3)nc(OC3CCN(C(C)C)CC3)c12 has a reported Emax of 0

Cc1n[nH]c2nc(-c3ccc(NS(=O)(=O)c4cc(Cl)ccc4F)cc3)nc(OC3CCN(C4CC4)CC3)c12 has a reported Emax of 3

O=S(=O)(Nc1ccc(-c2nc(O[C@H]3CC[C@H](O)CC3)c3cn[nH]c3n2)cc1)c1cc(Cl)ccc1F has a reported Emax of 13

N#Cc1ccc(Cl)cc1S(=O)(=O)Nc1ccc(-c2ncc3c(N)n[nH]c3n2)cc1 has a reported Emax of 17

----------
# assayed.system: Serine/threonine-protein kinase Sgk1 (Homo sapiens, UniProt O00141)
# experimental.protocol: Inhibition of recombinant human SGK1 expressed in baculovirus expression system using 5-carboxyfluorescein -RPRAATF-NH2 as substrate preincubated for 30 mins followed by substrate addition in presence of 500 uM ATP and measured after 60 mins by microfluidics assay
So I've got a bunch of compounds here, and I need their pIC50 values.
Give only the number. pIC50 is defined as minus log10 of concentration in molar units.

Param item: Cc1n[nH]c2nc(-c3ccc(NS(=O)(=O)c4cc(Cl)ccc4F)cc3)nc(OCC3CN(C(C)C)C3)c12 ; param system: Serine/threonine-protein kinase Sgk1 (Homo sapiens, UniProt O00141); output pIC50: 9.00

Param item: CN(C)CCCNC(=O)c1cc(-c2ccc(NS(=O)(=O)c3cccc(Cl)c3Cl)cc2)nc2[nH]ncc12 ; param system: Serine/threonine-protein kinase Sgk1 (Homo sapiens, UniProt O00141); output pIC50: 6.20

----------
# experimental.protocol: Volume of distribution at steady state in C57BL/6 mouse at 3 mg/kg, iv qd
# Format: ADME, organism-based
# test.conditions: in vivo, read-out: Vdss
recorded.endpoint: Vd

Cc1n[nH]c2nc(-c3ccc(NS(=O)(=O)c4cc(Cl)ccc4F)cc3)nc(OC3CCN(C(C)C)CC3)c12 has a reported Vd of 2.4 L/kg

----------
# experimental.protocol: Ratio of AUC(0 to 24 hrs) in femoral head to plasma in rat measured after 24 hrs
# Type: ADME, Bone/Plasma
# test.conditions: read-out: Selectivity ratio
recorded.endpoint: Kp at 24 h
Answer using only a numeral; do not append any unit.

Cc1n[nH]c2nc(-c3ccc(NS(=O)(=O)c4cc(Cl)ccc4F)cc3)nc(OC3CCN(C(C)C)CC3)c12 has a reported Kp at 24 h of 1.1

----------
# experimental.protocol: Oral bioavailability in C57BL/6 mouse at 30 mg/kg
# Type: ADME, organism-based
# test.conditions: in vivo
recorded.endpoint: bioavailability
# output: numeric value plus its unit

Cc1n[nH]c2nc(-c3ccc(NS(=O)(=O)c4cc(Cl)ccc4F)cc3)nc(OC3CCN(C(C)C)CC3)c12 has a reported bioavailability of 72%

----------
# assayed.system: Serine/threonine-protein kinase Sgk1 (Homo sapiens, UniProt O00141)
# experimental.protocol: Inhibition of recombinant human SGK1 expressed in baculovirus expression system using 5-carboxyfluorescein -RPRAATF-NH2 as substrate preincubated for 30 mins followed by substrate addition in presence of 500 uM ATP and measured after 60 mins by microfluidics assay
So I've got a bunch of compounds here, and I need their log10 of IC50 values.
The base-10 logarithm of IC50, taken with IC50 in nM, is what appears here.

Nc1nc(CNC(=O)c2cc(-c3ccc(NS(=O)(=O)c4cccc(Cl)c4Cl)cc3)nc3[nH]ncc23)cs1 has a reported log10 of IC50 of 3.39

NC(=O)c1cc(-c2ccc(NS(=O)(=O)c3cccc(Cl)c3Cl)cc2)nc2[nH]ncc12 has a reported log10 of IC50 of 2.37

Cc1n[nH]c2nc(-c3ccc(NS(=O)(=O)c4cc(Cl)ccc4F)cc3)nc(OC3CCN(C4CC4)CC3)c12 has a reported log10 of IC50 of 0.60

CN1CCC(CNC(=O)c2cc(-c3ccc(NS(=O)(=O)c4cccc(Cl)c4Cl)cc3)nc3[nH]ncc23)C1 (racemic) has a reported log10 of IC50 of 1.65

CC(C)NC(=O)c1cc(-c2ccc(NS(=O)(=O)c3cccc(Cl)c3Cl)cc2)nc2[nH]ncc12 has a reported log10 of IC50 of 4.25

O=C(NC1CCN(C2CC2)C1)c1cc(-c2ccc(NS(=O)(=O)c3cccc(Cl)c3Cl)cc2)nc2[nH]ncc12 (racemic) has a reported log10 of IC50 of 2.79

Cc1n[nH]c2nc(-c3ccc(NS(=O)(=O)c4cc(Cl)ccc4F)cc3)nc(Oc3ccc(N)nc3)c12 has a reported log10 of IC50 of 1.04

----------
# assayed.system: hERG (KCNH2) (Homo sapiens)
# Sequence (Q12809 whole entry): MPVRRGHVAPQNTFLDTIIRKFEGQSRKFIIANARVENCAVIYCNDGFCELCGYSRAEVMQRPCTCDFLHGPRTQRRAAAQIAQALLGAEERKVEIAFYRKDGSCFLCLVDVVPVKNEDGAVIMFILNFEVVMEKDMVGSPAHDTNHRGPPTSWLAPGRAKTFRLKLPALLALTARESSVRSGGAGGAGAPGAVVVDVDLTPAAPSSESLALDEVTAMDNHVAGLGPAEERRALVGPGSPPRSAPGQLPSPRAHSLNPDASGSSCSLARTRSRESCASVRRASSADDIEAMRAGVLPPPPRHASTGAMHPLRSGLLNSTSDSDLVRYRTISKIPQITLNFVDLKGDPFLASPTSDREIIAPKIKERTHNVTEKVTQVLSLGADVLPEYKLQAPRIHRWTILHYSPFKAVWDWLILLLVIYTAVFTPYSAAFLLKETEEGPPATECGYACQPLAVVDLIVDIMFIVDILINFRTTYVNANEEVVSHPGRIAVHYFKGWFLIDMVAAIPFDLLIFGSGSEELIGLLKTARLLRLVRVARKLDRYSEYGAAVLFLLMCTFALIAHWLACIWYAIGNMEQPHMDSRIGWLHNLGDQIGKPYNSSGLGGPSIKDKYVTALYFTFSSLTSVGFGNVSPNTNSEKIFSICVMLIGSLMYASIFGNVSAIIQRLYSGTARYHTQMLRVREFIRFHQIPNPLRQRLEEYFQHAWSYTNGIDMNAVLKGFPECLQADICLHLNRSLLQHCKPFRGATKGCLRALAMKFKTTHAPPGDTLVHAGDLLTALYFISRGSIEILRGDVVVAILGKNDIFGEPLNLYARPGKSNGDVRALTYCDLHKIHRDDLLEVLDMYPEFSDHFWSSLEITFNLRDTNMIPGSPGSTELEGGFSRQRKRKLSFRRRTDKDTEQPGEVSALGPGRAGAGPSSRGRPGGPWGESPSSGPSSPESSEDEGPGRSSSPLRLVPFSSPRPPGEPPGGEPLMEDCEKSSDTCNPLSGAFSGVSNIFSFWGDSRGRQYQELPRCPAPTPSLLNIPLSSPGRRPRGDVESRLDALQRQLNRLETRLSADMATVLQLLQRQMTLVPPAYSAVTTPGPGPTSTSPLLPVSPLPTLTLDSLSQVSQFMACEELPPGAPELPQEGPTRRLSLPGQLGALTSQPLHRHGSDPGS
# experimental.protocol: Inhibition of human ERG at 1 uM relative to control
# Assay type: toxicity
recorded.endpoint: inhibition at 1 µM (%)
Reply numerically in %, unit not repeated.

Cc1n[nH]c2nc(-c3ccc(NS(=O)(=O)c4cc(Cl)ccc4F)cc3)nc(OC3CCN(C(C)C)CC3)c12 has a reported inhibition at 1 µM of 60

O=S(=O)(Nc1ccc(-c2nc(O[C@H]3CC[C@H](O)CC3)c3cn[nH]c3n2)cc1)c1cc(Cl)ccc1F has a reported inhibition at 1 µM of 0

N#Cc1ccc(Cl)cc1S(=O)(=O)Nc1ccc(-c2ncc3c(N)n[nH]c3n2)cc1 has a reported inhibition at 1 µM of 0

Cc1n[nH]c2nc(-c3ccc(NS(=O)(=O)c4cc(Cl)ccc4F)cc3)nc(OC3CCN(C4CC4)CC3)c12 has a reported inhibition at 1 µM of 24

----------
# assayed.system: UniProt P08684
# experimental.protocol: Inhibition of CYP3A4 in human liver microsomes using testosterone as substrate incubated for 30 mins by LC-MS/MS analysis
# Assay type: ADME
pIC50: −log10 of the molar value.
recorded.endpoint: pIC50

N#Cc1ccc(Cl)cc1S(=O)(=O)Nc1ccc(-c2ncc3c(N)n[nH]c3n2)cc1 has a reported pIC50 of < 4.52

O=S(=O)(Nc1ccc(-c2nc(O[C@H]3CC[C@H](O)CC3)c3cn[nH]c3n2)cc1)c1cc(Cl)ccc1F has a reported pIC50 of < 5.52

Cc1n[nH]c2nc(-c3ccc(NS(=O)(=O)c4cc(Cl)ccc4F)cc3)nc(OC3CCN(C(C)C)CC3)c12 has a reported pIC50 of < 4.52

Cc1n[nH]c2nc(-c3ccc(NS(=O)(=O)c4cc(Cl)ccc4F)cc3)nc(OC3CCN(C4CC4)CC3)c12 has a reported pIC50 of < 4.52

----------
# experimental.protocol: Metabolic stability in Sprague-Dawley rat liver microsomes assessed as compound degradation in presence of NADPH measured after 20 mins
# Format: ADME, Microsome
# test.conditions: read-out: Drug degradation
recorded.endpoint: metabolised at 20 min (%)
Reply numerically in %, unit not repeated.

Cc1n[nH]c2nc(-c3ccc(NS(=O)(=O)c4cc(Cl)ccc4F)cc3)nc(OC3CCN(C(C)C)CC3)c12 has a reported metabolised at 20 min of 12

O=S(=O)(Nc1ccc(-c2nc(O[C@H]3CC[C@H](O)CC3)c3cn[nH]c3n2)cc1)c1cc(Cl)ccc1F has a reported metabolised at 20 min of 7

N#Cc1ccc(Cl)cc1S(=O)(=O)Nc1ccc(-c2ncc3c(N)n[nH]c3n2)cc1 has a reported metabolised at 20 min of 2

Cc1n[nH]c2nc(-c3ccc(NS(=O)(=O)c4cc(Cl)ccc4F)cc3)nc(OC3CCN(C4CC4)CC3)c12 has a reported metabolised at 20 min of 4

----------
# assayed.system: Serine/threonine-protein kinase Sgk1 (Homo sapiens)
# Sequence (O00141 whole entry): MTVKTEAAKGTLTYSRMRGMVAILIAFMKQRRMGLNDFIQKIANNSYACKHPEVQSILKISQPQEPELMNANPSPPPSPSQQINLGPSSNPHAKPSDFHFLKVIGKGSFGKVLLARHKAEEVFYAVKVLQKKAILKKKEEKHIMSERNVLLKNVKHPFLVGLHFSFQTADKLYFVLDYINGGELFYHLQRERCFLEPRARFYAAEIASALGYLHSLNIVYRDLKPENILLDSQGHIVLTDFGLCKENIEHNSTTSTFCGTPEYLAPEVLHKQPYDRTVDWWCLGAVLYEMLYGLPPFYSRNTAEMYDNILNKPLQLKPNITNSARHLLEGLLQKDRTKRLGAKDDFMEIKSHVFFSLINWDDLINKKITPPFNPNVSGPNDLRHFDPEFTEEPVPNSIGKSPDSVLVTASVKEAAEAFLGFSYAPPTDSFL
# experimental.protocol: Inhibition of recombinant human SGK1 expressed in baculovirus expression system using 5-carboxyfluorescein -RPRAATF-NH2 as substrate preincubated for 30 mins followed by substrate addition in presence of 500 uM ATP and measured after 60 mins by microfluidics assay
pIC50: −log10 of the molar value.
I would appreciate it if you labelled entries 1 when pIC50 is 8 or higher, otherwise -1.

Data request: Quick check: does O=C(NCc1cc[nH]n1)c1cc(-c2ccc(NS(=O)(=O)c3cccc(Cl)c3Cl)cc2)nc2[nH]ncc12 have pIC50 greater than or equal to 8?
Data returned: -1

Data request: Quick check: does CCN1CCC(Oc2nc(-c3ccc(NS(=O)(=O)c4cc(Cl)ccc4F)cc3)nc3[nH]nc(C)c23)CC1 have pIC50 greater than or equal to 8?
Data returned: 1

Data request: Quick check: does CN1CCC(NC(=O)c2cc(-c3ccc(NS(=O)(=O)c4cccc(Cl)c4Cl)cc3)nc3[nH]ncc23)C1 (racemic) have pIC50 greater than or equal to 8?
Data returned: -1

Data request: Quick check: does COCCN1CCC(Oc2nc(-c3ccc(NS(=O)(=O)c4cc(Cl)ccc4F)cc3)nc3[nH]nc(C)c23)CC1 have pIC50 greater than or equal to 8?
Data returned: 1

Data request: Quick check: does CN(CCO)C(=O)c1cc(-c2ccc(NS(=O)(=O)c3cccc(Cl)c3Cl)cc2)nc2[nH]ncc12 have pIC50 greater than or equal to 8?
Data returned: -1

Data request: Quick check: does Cc1n[nH]c2nc(-c3ccc(NS(=O)(=O)c4cc(Cl)ccc4F)cc3)nc(OC3CCCNC3)c12 (stereo not drawn) have pIC50 greater than or equal to 8?
Data returned: 1

Data request: Quick check: does CNC(=O)c1cc(-c2ccc(NS(=O)(=O)c3cccc(Cl)c3Cl)cc2)nc2[nH]ncc12 have pIC50 greater than or equal to 8?
Data returned: -1
